- measurement.description: protein stability index of a GFP-peptide fusion (GPS, HEK-293T) (PSI 1-6); higher = more stable;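 further: 24-mer peptide tiles fused after GFP, lentivirally expressed, FACS-sorted into six equal bins by GFP/DsRed ratio, decoded by Illumina sequencing, PSI is the read-weighted mean bin number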
- test.settings: treatment: DMSO; c terminus: a fixed tail appended
Listed here: items and their measured protein stability index.
Kindly provide the number alone.

                    sequence_content  experimental_value
0    RQEAIYEMSRGEQDLIEDLKLARK [NET1]                4.69
1  LLVFLILVGIFILAVSRPRSSPDD [SCARA5]                2.08
2   RQTTGLMEYCLEVIKENDPSGFLQ [TRIM9]                3.11
3    NPEVGIFVSIAQSEQESLLQQAQA [SMG5]                4.09

// protein stability index value for APLRKLSVDLIKTYKHINEVYYAK [DYRK1B] : 2.84

// protein stability index value for WNDFLMCYSSRPLLCWSVWWALST [SLC19A2] : 3.5

---

- measurement.description: protein stability index of a GFP-peptide fusion (GPS, HEK-293T) (PSI 1-6); higher = more stable
- test.settings: treatment: MLN4924 1 uM, 8 h; c terminus: a fixed tail appended
metric.name: protein stability index

Example entries and their recorded answers appear below.
                    sequence_content              metric_name  experimental_value
0     VPAAGGPAPKRGYSSEMKTEDELR [AUH]  protein stability index                 5.9
1  SRRYNRKEPAEFNGDGAFLHDNHE [ZNF649]  protein stability index                4.45
2    KNIFRIRFHDPSPAQSHTLQANDV [NET1]  protein stability index                3.06

// protein stability index value for AAANCHFHCIETLVTTGANVNETD [ANKRD44] : 4.08

// protein stability index value for DMCMKVPDDPEHLAARRQWRDECL [CRYL1] : 4.56

// protein stability index value for LRHFFLVEDLVDSLKLALLFYILT [RTN2] : 2.45

// protein stability index value for ARIYIRRTLRNFINDEMQAKGIPQ [PCMTD1] : 2.15

// protein stability index value for TPATPEDPAPLWGPPPAQGSPGDG [EMID1] : 5.31

// protein stability index value for AAKQLEYQQLEDDKLSQKSSSSKL [EPB41L3] : 4.92

// protein stability index value for KLSSFYSLKLIKRLYVDKSLNLST [SERPINB5] : 2.18

// protein stability index value for LGHAAAFSDDCDLPSAQDINRLVG [GLT8D2] : 4.43

---

Listed here: items and their measured protein stability index.
- measurement.description: protein stability index of a GFP-peptide fusion (GPS, HEK-293T) (PSI 1-6); higher = more stable
- test.settings: treatment: DMSO; c terminus: a fixed tail appended
Kindly provide the number alone.

Example entries and their recorded answers appear below.
In [3]: df
Out[3]:
                   sequence_content  experimental_value
0   QMTPTNLAVCLAPSLFHLNTLKRE [DLC1]                2.79
1  AARAVRANDINYQDQIPRTLEEFV [FEM1B]                3.96
2   KKTVHYYAELGQCSVFPATDAPEQ [PLK2]                 3.6

Here is another sequence to look at.
// protein stability index value for DGASVNENHEIYMKDSMSAAEVGT [EPB41L3] : 5.31
